Reported LD50 at 168 h values for the following molecules.
# ASSAY_OVERVIEW: in vivo
# COND: mouse, ip, mice, intraperitoneal, mortality 7 days after administration, read-out: DL50 i.p.
Where a name gives a salt, the structure may show the parent alone.
// note: answer is a bare numeric in mg/kg

Consider the reported LD50 at 168 h for these molecules:
{"MOLECULE": "COc1cc2nc(N3CCN(C(=O)CC(=O)c4ccccc4)CC3)nc(N)c2cc1OC", "LD50 at 168 h, mg/kg": 142}
{"MOLECULE": "COc1ccc(CC2c3cc(OC)c(OC)cc3CCN2c2nc(N)c3cc(OC)c(OC)cc3n2)cc1OC (centres unmarked) [Example 33, hydrochloride hydrate]", "LD50 at 168 h, mg/kg": 884}

Incoming: I am curious: what LD50 at 168 h value has been reported for COc1cc2nc(N3CCN(C(=O)CCC(O)c4ccccc4)CC3)nc(N)c2cc1OC (centres unmarked) ?
Outgoing: 253

Incoming: I am curious: what LD50 at 168 h value has been reported for COc1cc2nc(N3CCN(C(=O)CC(c4ccccc4)c4ccccc4)CC3)nc(N)c2cc1OC [Example 4, hydrochloride] ?
Outgoing: 97

Incoming: I am curious: what LD50 at 168 h value has been reported for COc1cc2nc(N3CCN(C(=O)CCNC(=O)OCc4ccccc4)CC3)nc(N)c2cc1OC ?
Outgoing: 300

Incoming: I am curious: what LD50 at 168 h value has been reported for COc1cc2nc(N3CCN(C(=O)C(C)(C)Oc4ccccc4OC)CC3)nc(N)c2cc1OC.Cl ?
Outgoing: 435

Incoming: I am curious: what LD50 at 168 h value has been reported for COc1cc2nc(N(C)Cc3ccccc3)nc(N)c2cc1OC [Example 28, hydrochloride] ?
Outgoing: 89

###

# TARGET_OR_SYSTEM: UniProt P18841
# Sequence (P18841 whole entry): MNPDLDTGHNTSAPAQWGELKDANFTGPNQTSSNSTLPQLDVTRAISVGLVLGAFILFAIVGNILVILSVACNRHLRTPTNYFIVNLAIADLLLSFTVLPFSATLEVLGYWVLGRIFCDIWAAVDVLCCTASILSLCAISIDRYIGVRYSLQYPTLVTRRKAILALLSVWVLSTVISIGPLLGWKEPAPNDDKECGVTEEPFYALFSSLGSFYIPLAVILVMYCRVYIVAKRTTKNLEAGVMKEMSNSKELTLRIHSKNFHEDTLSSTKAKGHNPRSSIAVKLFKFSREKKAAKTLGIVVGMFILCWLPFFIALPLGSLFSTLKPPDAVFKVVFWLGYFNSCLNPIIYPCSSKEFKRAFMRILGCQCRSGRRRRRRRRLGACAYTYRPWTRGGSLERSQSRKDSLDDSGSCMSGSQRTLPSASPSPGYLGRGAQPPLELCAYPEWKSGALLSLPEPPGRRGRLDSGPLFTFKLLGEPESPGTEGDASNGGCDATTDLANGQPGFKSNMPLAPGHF
# ASSAY_OVERVIEW: biochemical
# Assay type: binding
# COND: syrian hamster α1B in COS-7 cells; mean of 2-4 experiments in triplicate, agreed within 10%
Where a name gives a salt, the structure may show the parent alone.
ATTRIBUTE_MEASURED: pIC50
// pIC50 here means minus log10 of the molar concentration (mol/L)

Incoming: I am curious: what pIC50 value has been reported for COc1ccc(CC2c3cc(OC)c(OC)cc3CCN2c2nc(N)c3cc(OC)c(OC)cc3n2)cc1OC (stereo not shown) [Example 33, hydrochloride hydrate] ?
Outgoing: 6.69

###

# ASSAY_OVERVIEW: in vivo
# COND: mouse, mice, oral, mortality 7 days after administration, read-out: DL50 p.o.
# Description: 20-30 g b.w., were obtained from Charles River, Italy. Animals were housed with free access to food and water and maintained on forced light-dark cycle at 22°-24° C. until the day of experiments. The acute toxicity of synthesized compounds was evaluated in female Albino Swiss mice after intraperitoneal and oral administration. […] Mortality was recorded 7 days after the administration.
Where a name gives a salt, the structure may show the parent alone.
ATTRIBUTE_MEASURED: LD50 at 168 h

Consider the reported LD50 at 168 h for these compounds:
{"COMPOUND": "COc1cc2nc(N3CCN(C(=O)CCCN)CC3)nc(N)c2cc1OC", "LD50 at 168 h": "> 3000 mg/kg"}
{"COMPOUND": "COc1cc2nc(N3CCN(C(=O)C(C)Oc4c(OC)cccc4C(C)C)CC3)nc(N)c2cc1OC.Cl (stereo not shown)", "LD50 at 168 h": "1960 mg/kg"}
{"COMPOUND": "COc1cc2nc(N3CCN(C(=O)C(c4ccccc4)c4ccccc4)CC3)nc(N)c2cc1OC", "LD50 at 168 h": "868 mg/kg"}
{"COMPOUND": "COc1cc2nc(N3CCN(C(=O)C(C)(C)Oc4ccccc4OC)CC3)nc(N)c2cc1OC.Cl", "LD50 at 168 h": "> 3000 mg/kg"}
{"COMPOUND": "COc1cc2nc(N3CCN(C(=O)CCNC(=O)OCc4ccccc4)CC3)nc(N)c2cc1OC", "LD50 at 168 h": "> 3000 mg/kg"}
{"COMPOUND": "COc1cc2nc(N(C)Cc3ccccc3)nc(N)c2cc1OC [Example 28, hydrochloride]", "LD50 at 168 h": "293 mg/kg"}
{"COMPOUND": "COc1cc2nc(N3CCN(C(=O)CC(=O)c4ccccc4)CC3)nc(N)c2cc1OC", "LD50 at 168 h": "> 3000 mg/kg"}
{"COMPOUND": "COc1cc2nc(N3CCN(Cc4ccccc4)CC3)nc(N)c2cc1OC [Example 1, hemihydrate]", "LD50 at 168 h": "301 mg/kg"}
{"COMPOUND": "COc1cc2nc(N3CCN(C(=O)CCC(=O)c4ccccc4)CC3)nc(N)c2cc1OC.Cl.O", "LD50 at 168 h": "> 3000 mg/kg"}
{"COMPOUND": "COc1cc2nc(N3CCN(C(=O)CC(O)c4ccccc4)CC3)nc(N)c2cc1OC (stereo not shown)", "LD50 at 168 h": "> 3000 mg/kg"}

Incoming: I am curious: what LD50 at 168 h value has been reported for COc1cc2nc(N3CCN(C(=O)COc4ccccc4OC)CC3)nc(N)c2cc1OC.Cl ?
Outgoing: > 2000 mg/kg

Incoming: I am curious: what LD50 at 168 h value has been reported for COc1ccc(CC2c3cc(OC)c(OC)cc3CCN2c2nc(N)c3cc(OC)c(OC)cc3n2)cc1OC (stereo not shown) [Example 33, hydrochloride hydrate] ?
Outgoing: > 3000 mg/kg

Incoming: I am curious: what LD50 at 168 h value has been reported for COc1cc2nc(N3CCN(C(=O)CCN)CC3)nc(N)c2cc1OC ?
Outgoing: > 3000 mg/kg

Incoming: I am curious: what LD50 at 168 h value has been reported for COc1cc2nc(N3CCC(c4ccccc4)(c4ccccc4)CC3)nc(N)c2cc1OC ?
Outgoing: > 2000 mg/kg

Incoming: I am curious: what LD50 at 168 h value has been reported for COc1cc2nc(N(C)CCC(c3ccccc3)c3ccccc3)nc(N)c2cc1OC [Example 29, hydrochloride] ?
Outgoing: > 2000 mg/kg

Incoming: I am curious: what LD50 at 168 h value has been reported for COc1cc2nc(N3CCN(C(=O)CNC(=O)CNC(=O)OCc4ccccc4)CC3)nc(N)c2cc1OC [Example 12, hydrochloride hemihydrate] ?
Outgoing: > 2000 mg/kg
